- tested-target: RAF proto-oncogene serine/threonine-protein kinase (Homo sapiens);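 further: values are mean CRAF kinase inhibition from profiling of the GSK Published Kinase Inhibitor Set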
- measurement-context: at 0.1 µM
endpoint-name: inhibition (%)
Give the number; % is assumed, so skip it.

# smiles-string, inhibition, %
records = [
    ("O=C(Nc1n[nH]c2nc(-c3ccco3)ccc12)C1CC1", 4.75),
    ("C[C@@H](Oc1cc(-n2cnc3ccc(OC4CCN(C)CC4)cc32)sc1C(N)=O)c1ccccc1Cl", 2.09),
]

Consider the additional molecule presented here.
get_value(item= Cc1ccc(NC(=O)c2ccoc2)cc1-c1ccc(C(=O)NCC2CC2)cc1 , readout=inhibition) returns 0.61

----------
- Test system: Tyrosine-protein kinase ABL1 (Homo sapiens), P00519 [H396P]
- measurement-context: at 1 µM
We begin with a simple list: items and their reported inhibition.
Give the quantity in %, number only.

# smiles-string, experimental-value
rows = [
    ("NC(=O)c1ccc(Oc2nccc(-c3c(-c4ccc(F)cc4)ncn3C3CCNCC3)n2)cc1", 5.53),
    ("CCC(=O)Nc1ccc(C)c(-c2ccc(C(=O)NCC3CC3)cc2)c1", 4.29),
    ("COc1cc(C)c(N(C)C(=O)CN(C)C)cc1Nc1nc(Nc2cccc(F)c2C(N)=O)c2cc[nH]c2n1", -0.41),
    ("CNC(=O)c1cncc(/C=C/c2c(C)cccc2C)c1", 61.5),
    ("C[C@@H](Oc1cc(-n2cnc3ccc(OC4CCN(C)CC4)cc32)sc1C(N)=O)c1ccccc1Cl", 10.5),
    ("COc1cc2ncn(-c3cc(OCc4cccs4)c(C(N)=O)s3)c2cc1OC", 51.6),
    ("C/C(Nc1ccc(S(N)(=O)=O)cc1)=C1/C(=O)Nc2ccccc21", 7.24),
    ("Cc1ccc(NC(=O)c2ccoc2)cc1-c1ccc(C(=O)NCC2CC2)cc1", 2.07),
]

inhibition in this record for c1ccc(Oc2ccc(Nc3ncc(-c4ccccc4)o3)cc2)cc1 : 0.51

For CCc1nccc2c1nc(-c1nonc1N)n2CC the compound record lists inhibition as 1.44

So, c1ccc(-c2n[nH]cc2-c2ccnc(-c3ccc(OCCN4CCOCC4)cc3)c2)nc1 ? Its inhibition was 70.9
